Cited source for all entries: the OPERA property sets (Mansouri et al. 2018)

# melting point values compiled below
The answer is to be given in °C; state only the numeric part.

Recorded results for 2 compounds are shown here.
| compound | melting point (°C) |
| --- | --- |
| CC(C)(Oc1ccc(Cl)cc1)C(=O)OCCOC(=O)c1cccnc1 | 100 |
| CCC(C(=O)NC(=O)NC(C)=O)c1ccccc1 (stereo not drawn) | 100 |

Field: next compound
-- ask Look at this compound and give its reported melting point. CC(=O)n1ccnc1
-- reply 102

----------
boiling point less than 200 °C is condition met; boiling point greater than or equal to 200 °C is condition not met.

See these solved cases before continuing.
| compound | assigned-category |
| --- | --- |
| CC(C)C(O)C(C)C | condition met |
| COC(=O)c1ccc(OC)c(OC)c1 | condition not met |
| Cc1ccc(C)nc1 | condition met |
| ClCCOc1ccccc1 | condition not met |
| CCCCOC(C)C | condition met |
| C=CC(C)(O)CC(C)C (configuration not stated) | condition met |

-- ask Given the entry CC/C=C/C(C)C , would its reported boiling point be below 200 °C?
-- reply condition met

-- ask Given the entry Cc1[nH]c2ccccc2c1C , would its reported boiling point be below 200 °C?
-- reply condition not met

-- ask Given the entry CCOc1ccc(O)cc1 , would its reported boiling point be below 200 °C?
-- reply condition not met

----------
Kind request: treat 200 °C as inclusive, so boiling point at 200 °C or higher is True, anything lower is False.

See these solved cases before continuing.
| smi | assigned-category |
| --- | --- |
| CN(CCCN)CCCN | True |
| CCC#CCCC | False |
| CCOC(=O)c1cccc(Br)c1 | True |

-- ask Assess whether reported boiling point for CC(=O)N(C)c1ccccc1 sits at 200 °C or higher.
-- reply True

-- ask Assess whether reported boiling point for CCCC(C)(C)CC sits at 200 °C or higher.
-- reply False

-- ask Assess whether reported boiling point for C=CCC(C)(O)CC=C sits at 200 °C or higher.
-- reply False

-- ask Assess whether reported boiling point for CSC(C)(C)C=NO sits at 200 °C or higher.
-- reply True

----------
# log10 Koa values compiled below

Recorded results for 5 compounds are shown here.
| smi | log10 Koa |
| --- | --- |
| CCCCCCC | 2.95 |
| Clc1cc(Cl)c(Cl)c(Cl)c1 | 5.55 |
| Clc1cc2c(c(Cl)c1Cl)Oc1c(cc(Cl)c(Cl)c1Cl)O2 | 11 |
| Clc1ccc2c(c1)Oc1c(Cl)c(Cl)c(Cl)c(Cl)c1O2 | 10.7 |
| CCCCC(C)=O | 3.68 |

-- ask Look at this compound and give its reported log10 Koa. CCCCCCCC
-- reply 3.35

-- ask Look at this compound and give its reported log10 Koa. CN1CCCC1
-- reply 3.64

-- ask Look at this compound and give its reported log10 Koa. CCc1ccccc1
-- reply 3.74

-- ask Look at this compound and give its reported log10 Koa. CCOC(=O)CC
-- reply 3.15

----------
Details: fish
log10 BCF less than 2 is Criterion met; log10 BCF greater than or equal to 2 is Criterion not met.

-- ask Given the entry CCC(=O)Nc1ccc(Cl)c(Cl)c1 , would its reported log10 BCF be below 2?
-- reply Criterion met

-- ask Given the entry COc1cc(Oc2ccc(Cl)cc2Cl)ccc1[N+](=O)[O-] , would its reported log10 BCF be below 2?
-- reply Criterion not met

-- ask Given the entry CCOc1ccc(NC(C)=O)cc1 , would its reported log10 BCF be below 2?
-- reply Criterion met

----------
# melting point values compiled below
The answer is to be given in °C; state only the numeric part.

| compound | units-label | melting point |
| --- | --- | --- |
| CCOC(=O)CC(=O)CCl | °C | -8 |
| COc1cc(CCCO)ccc1O | °C | 65 |

-- ask Look at this compound and give its reported melting point. CCCCCCC=NO
-- reply 57.5

----------
# melting point values compiled below
The answer is to be given in °C; state only the numeric part.

Recorded results for 10 compounds are shown here.
| compound | units-label | melting point |
| --- | --- | --- |
| Clc1c(Cl)c(Cl)c2nccnc2c1Cl | °C | 190 |
| Cc1ccc(N)c(N)c1 | °C | 89.5 |
| CC(=O)Nc1ccc(Cl)cc1 | °C | 179 |
| Cc1cc(O)ccc1[N+](=O)[O-] | °C | 128 |
| O=C(O)CCBr | °C | 62.5 |
| CCC(C)=O | °C | -86.6 |
| C1CO1 | °C | -112 |
| Fc1ccc(N2CCNCC2)cc1 | °C | 31.5 |
| CCCCC(N)=O | °C | 106 |
| Cc1c[nH]c2ccccc12 | °C | 97.5 |

-- ask Look at this compound and give its reported melting point. O=CNNC=O
-- reply 156

----------
Kind request: treat 1 as inclusive, so log10 vapour pressure (mmHg) at 1 or higher is Satisfied, anything lower is Not satisfied.

See these solved cases before continuing.
| compound | assigned-category |
| --- | --- |
| CCCCC(CC)CN (stereo unspecified) | Not satisfied |
| C=CF | Satisfied |

-- ask Assess whether reported log10 vapour pressure (mmHg) for CCCCCCCCCCCCCCCCCCCCCCCCC sits at 1 or higher.
-- reply Not satisfied

-- ask Assess whether reported log10 vapour pressure (mmHg) for Oc1ccc(Cl)cc1Cc1cc(Cl)ccc1O sits at 1 or higher.
-- reply Not satisfied

-- ask Assess whether reported log10 vapour pressure (mmHg) for CC(C)(C)OOC(C)(C)C sits at 1 or higher.
-- reply Satisfied

-- ask Assess whether reported log10 vapour pressure (mmHg) for Clc1cc2c(cc1Cl)Oc1c(Cl)c(Cl)cc(Cl)c1O2 sits at 1 or higher.
-- reply Not satisfied

----------
readout-kind: melting point
Field: value (include unit after the number)

Recorded results for 5 compounds are shown here.
| smi | melting point |
| --- | --- |
| CC[C@H]1CN2CCc3cc(OC)c(OC)cc3[C@@H]2C[C@@H]1C[C@H]1NCCc2cc(OC)c(OC)cc21 | 74 °C |
| C[C@]12CC[C@H]3C(=CCc4cc(O)ccc43)[C@@H]1CCC2=O | 239 °C |
| C1CSCSC1 | 54 °C |
| CCOCCO | -70 °C |
| CCCCCCCCCCCCCCCCCC(N)=O | 109 °C |

-- ask Look at this compound and give its reported melting point. Nc1c([N+](=O)[O-])cccc1[N+](=O)[O-]
-- reply 142 °C

-- ask Look at this compound and give its reported melting point. Cc1ccc2ccccc2c1
-- reply 34.4 °C

-- ask Look at this compound and give its reported melting point. O=C(OC(=O)C(F)(F)C(F)(F)C(F)(F)F)C(F)(F)C(F)(F)C(F)(F)F
-- reply -43 °C

-- ask Look at this compound and give its reported melting point. c1ccc(CNCCNCc2ccccc2)cc1
-- reply 26 °C

-- ask Look at this compound and give its reported melting point. O=C(O)Cc1ccc(O)c(O)c1
-- reply 128 °C

-- ask Look at this compound and give its reported melting point. Cc1ccc(C(=O)c2csc(S(N)(=O)=O)c2)cc1
-- reply 176 °C

-- ask Look at this compound and give its reported melting point. Clc1cc2oc3c(Cl)c(Cl)ccc3c2cc1Cl
-- reply 195 °C

-- ask Look at this compound and give its reported melting point. CCOCCOCCOC(C)=O
-- reply -25 °C

----------
readout-kind: melting point (°C)
The answer is to be given in °C; state only the numeric part.

Recorded results for 4 compounds are shown here.
| compound | readout-kind | recorded-result |
| --- | --- | --- |
| Cn1ccccc1=O | melting point | 31 |
| C1=CCCC1 | melting point | -135 |
| CCCCCI | melting point | -85.6 |
| O=C1C(O)=C(O)C(=O)c2ccccc21 | melting point | 282 |

-- ask Look at this compound and give its reported melting point. O=S(=O)([O-])CCN1CC[NH+](CCO)CC1
-- reply 234

-- ask Look at this compound and give its reported melting point. CC[C@@H]1C(=O)OC[C@@H]1Cc1cncn1C.Cl
-- reply 204

-- ask Look at this compound and give its reported melting point. Nc1ccc([N+](=O)[O-])cc1O
-- reply 208

-- ask Look at this compound and give its reported melting point. CCOc1ccccc1C=O
-- reply 21

-- ask Look at this compound and give its reported melting point. CC(C)c1ccccc1Cl
-- reply -74.4

-- ask Look at this compound and give its reported melting point. CC(O)Cn1c(=O)c2c(ncn2C)n(C)c1=O (stereo not drawn)
-- reply 141

-- ask Look at this compound and give its reported melting point. CCCCCCCCCCCCCC(=O)CC
-- reply 43

-- ask Look at this compound and give its reported melting point. CC(C)CC(C)C(C)C (stereo not drawn)
-- reply -128

-- ask Look at this compound and give its reported melting point. C1SCSCS1
-- reply 220

-- ask Look at this compound and give its reported melting point. COc1ccc(C(=O)O)cc1O
-- reply 252

-- ask Look at this compound and give its reported melting point. C=CC(=O)O[C@@H]1C[C@H]2CC[C@]1(C)C2(C)C
-- reply 97

-- ask Look at this compound and give its reported melting point. CCCCC(=O)O
-- reply -34

-- ask Look at this compound and give its reported melting point. O=C(O)CCC(=O)c1ccc(C2CCCCC2)c(Cl)c1
-- reply 163

-- ask Look at this compound and give its reported melting point. CCC(C)(C)C(=O)O[C@H]1C[C@@H](C)C=C2C=C[C@H](C)[C@H](CC[C@@H]3C[C@@H](O)CC(=O)O3)[C@H]21
-- reply 136
